# System name: T1, Human EphA2 (ephrin receptor A2) (human, UniProt P29317 24-976)
# T1 construct: Endogenous protein in frozen human tumor tissue and tumor adjacent tissue, not a recombinant construct
# T1 sequence (P29317 24-976 limits assumed): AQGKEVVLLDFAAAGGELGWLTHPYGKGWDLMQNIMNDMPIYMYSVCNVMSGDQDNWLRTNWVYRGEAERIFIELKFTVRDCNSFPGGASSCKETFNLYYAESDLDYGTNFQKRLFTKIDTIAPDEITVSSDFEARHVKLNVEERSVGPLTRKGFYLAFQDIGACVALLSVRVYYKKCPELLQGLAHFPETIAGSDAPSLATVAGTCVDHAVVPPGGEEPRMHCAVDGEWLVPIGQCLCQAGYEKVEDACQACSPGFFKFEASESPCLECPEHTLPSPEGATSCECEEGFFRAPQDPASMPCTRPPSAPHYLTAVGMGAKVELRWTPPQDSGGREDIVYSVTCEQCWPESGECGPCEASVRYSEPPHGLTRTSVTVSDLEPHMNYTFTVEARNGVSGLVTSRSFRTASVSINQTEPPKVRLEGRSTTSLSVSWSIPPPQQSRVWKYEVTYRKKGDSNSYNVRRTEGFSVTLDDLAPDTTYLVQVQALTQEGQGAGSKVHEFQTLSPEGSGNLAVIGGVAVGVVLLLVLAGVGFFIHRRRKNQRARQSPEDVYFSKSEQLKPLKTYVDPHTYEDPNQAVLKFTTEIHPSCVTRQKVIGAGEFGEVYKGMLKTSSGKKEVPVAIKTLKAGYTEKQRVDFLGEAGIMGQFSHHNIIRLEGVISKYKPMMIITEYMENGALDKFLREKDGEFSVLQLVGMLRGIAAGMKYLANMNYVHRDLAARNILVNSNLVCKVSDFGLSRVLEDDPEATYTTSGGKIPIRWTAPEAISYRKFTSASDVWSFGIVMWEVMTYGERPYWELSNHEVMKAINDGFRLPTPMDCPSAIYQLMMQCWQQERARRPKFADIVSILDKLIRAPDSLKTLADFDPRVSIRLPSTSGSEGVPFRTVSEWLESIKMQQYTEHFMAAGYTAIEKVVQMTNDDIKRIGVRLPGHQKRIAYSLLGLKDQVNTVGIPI
# Test details: IHC/IF score on frozen human tumor tissue, ANC
Readout label: IHC score
Kindly provide the number alone.

Input line: Identify measured IHC score associated with AB-009816 (antibody, mouse IgG2a, V domains shown) VH: QVQLQQWGAGLLKPSETLSLTCAVYGGSFSDYYWSWIRQPPGKGLEWIGEVNHRGSINYNNYNPSLKSRVTISVDASKNQFSLKLTSVTAADTAVYYCAKPLRPHCTNGVCYSGDAFDIWGQGTMVTVAS VL: SYVLTQPPSVSVAPGQTARITCGGNNIGSKNVHWYQQKPGQAPVLVVYDDSDRPSGIPEQFSGSNSGNTATLTISRVEAGDEADYYCQVWDSSSDHLVFGGGTKLTVL
Output line: 2

Input line: Output IHC score of AB-009815 (antibody, mouse IgG2a, V domains shown) VH: QVQLQQWGAGLLKPSETLSLTCAVYGGSFSDYYWSWIRQPPGKGLEWIGEVNHRGSINYNNYNPSLKSRVTISVDTSKNQFSLKLTSVTAADTAVYYCAKPLRPHCTNGVCYSGDAFDIWGQGTMVTVAS VL: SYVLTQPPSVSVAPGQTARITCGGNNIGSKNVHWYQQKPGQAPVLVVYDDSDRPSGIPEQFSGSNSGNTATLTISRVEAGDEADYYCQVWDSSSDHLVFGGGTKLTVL
Output line: 2

Input line: Return the recorded IHC score value; entry: AB-009813 (antibody, mouse IgG2a, V domains shown) VH: QVQLQQWGAGLLKPSETLSLTCAVYGGSFSDYYWSWIRQPPGKGLEWIGEVNHAGSINYNNYNPSLKSRVTISVDPSKNQFSLKLTSVTAADTAVYYCAKPLRPHCTNGVCYSGDAFDIWGQGTMVTVAS VL: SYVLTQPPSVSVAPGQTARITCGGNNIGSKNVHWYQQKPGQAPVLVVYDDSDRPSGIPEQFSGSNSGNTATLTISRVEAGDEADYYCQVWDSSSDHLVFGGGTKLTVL
Output line: 2
